SYSTEM_UNDER_TEST: transthyretin fragment peptide (TTR81-127) (Homo sapiens, UniProt P02766)
Construct: TTR fragment 81-127 was obtained from AnaSpec; purchased AnaSpec; host or cells: synthetic peptide
EXPERIMENTAL_PROTOCOL: ThT fluorescence assay of TTR81-127 fibril formation
Assay type: biochemical
TEST_SETTINGS: compounds at 100 μM; TTR81-127 10 μM; control 0.25% DMSO; read-out: ThT TTR81-127 (%), maximum thioflavin T (ThT) intensity in percentage
ENDPOINT_LABEL: remaining activity at 100 µM (%)

# SMILES_TEXT, OBS_VALUE
measured = [
    ("O=C(CCl)Nc1nsc2ccc([N+](=O)[O-])cc12", 59.7),
    ("CS(=O)(=O)N(c1nsc2ccc([N+](=O)[O-])cc12)S(C)(=O)=O", 63),
    ("CC(=O)Nc1nsc2ccc([N+](=O)[O-])cc12", 90.2),
    ("O=[N+]([O-])c1ccc2snc(Nc3nc(Cl)nc(Cl)n3)c2c1", 82.6),
    ("CCNC(=O)N(C(=O)NCC)c1nsc2ccc([N+](=O)[O-])cc12", 73.4),
    ("O=C(Cc1cccs1)Nc1nsc2ccc([N+](=O)[O-])cc12", 69),
]

a = O=C(Cc1ccccc1)Nc1nsc2ccc([N+](=O)[O-])cc12
b = Nc1nsc2ccc([N+](=O)[O-])cc12
## Task In terms of reported remaining activity at 100 µM, does a or b have the smaller number? Please respond with the label that marks your chosen entry.
## Result b
